test system: Plasmodium falciparum; assay: Inhibition of plasmodium falciparum ARK1 assessed as remaining activity at 1 uM incubated for 2 hrs by luciferin-based luminescence assay relative to control
Measured parameter: Activity (%)
Give the quantity in %, number only.

[
  {
    "Input smiles": "COc1cc2nccc(Oc3ccc(NC(=O)Nc4ccc(CC5CCNCC5)c(C(F)(F)F)c4)c(F)c3)c2cc1OC",
    "Measured parameter": "Activity",
    "Quantitative readout": 100
  }
]

Suppose we examine the compound COc1cc2nccc(Oc3ccc(NC(=O)Nc4ccc(CC5CCNCC5)cc4)c(F)c3)c2cc1OC ; what Activity value has been reported?
97

Suppose we examine the compound COc1cc2nccc(Oc3ccc(NC(=O)Nc4ccc(OC5CCN(C)CC5)c(C(F)(F)F)c4)c(F)c3)c2cc1OC ; what Activity value has been reported?
94

Suppose we examine the compound COc1cc2nccc(Oc3ccc(NC(=O)Nc4ccc(C=C5CCNCC5)cc4)c(F)c3)c2cc1OC ; what Activity value has been reported?
98

====

target: Cdk-related protein kinase 6 (Plasmodium falciparum, UniProt O77239)
Measured parameter: pIC50
Scale explanation: pIC50 corresponds to minus log10 of a concentration expressed in moles per litre.

Suppose we examine the compound Cn1cnc2c(NCc3ccccc3)nc(NCCO)nc21 [OLOMOUCINE] ; what pIC50 value has been reported?
3.74

====

Target: UniProtKB O77239
Sequence (whole entry): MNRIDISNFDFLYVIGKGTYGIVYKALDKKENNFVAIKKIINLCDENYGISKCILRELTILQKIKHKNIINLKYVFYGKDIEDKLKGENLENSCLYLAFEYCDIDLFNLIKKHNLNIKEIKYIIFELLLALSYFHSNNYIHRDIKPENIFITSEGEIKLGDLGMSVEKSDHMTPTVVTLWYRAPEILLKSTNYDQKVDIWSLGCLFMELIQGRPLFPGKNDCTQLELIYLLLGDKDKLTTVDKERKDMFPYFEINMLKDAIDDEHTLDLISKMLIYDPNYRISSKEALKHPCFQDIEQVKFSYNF
Test: Inhibition of plasmodium falciparum PK6 assessed as remaining activity at 1 uM incubated for 2 hrs by luciferin-based luminescence assay relative to control
Record 1 (yes) whenever Activity is at 40% or higher; record 0 (no) when lower.

Illustrative cases are given below, each with its answer.
[
  {
    "Input smiles": "O=C(Nc1ccc(F)cc1F)Nc1ccc(Oc2cc(NCc3ccccc3)ncn2)cc1F",
    "Class label": "1 (yes)"
  },
  {
    "Input smiles": "COc1cc2nccc(Oc3ccc(NC(N)=O)c(F)c3)c2cc1OC",
    "Class label": "0 (no)"
  },
  {
    "Input smiles": "O=C(Nc1ccc(F)cc1F)Nc1ccc(Oc2ccnc3cc4c(cc23)OCCO4)cc1F",
    "Class label": "0 (no)"
  },
  {
    "Input smiles": "COc1cc2nccc(Oc3ccc(N)cc3)c2cc1OC",
    "Class label": "1 (yes)"
  }
]

Proceed to the following item.
I'd appreciate it if you could say whether O=C(Nc1ccc(F)cc1F)Nc1ccc(Oc2ccnc3sccc23)cc1F has Activity at least equal to 40%.
1 (yes)
